Test system: melanin
Assay Details: Compound binding to melanin
Type: in vitro ADME
Test Settings: cuttlefish (Sepia officinalis), melanin suspension (1 mg/mL), percentage of free drug (not bound to melanin), 2 µM compound, melanin 1 mg/mL in PBS pH 7.4, 37°C
Field: fraction unbound at 2 h, 2 µM. Provide a value for each of the compounds that follow.

Below: 2 compounds and their reported fraction unbound at 2 h, 2 µM.
CNC(=O)c1ccc(F)cc1Sc1ccc2c(/C=C/c3ccc(CN4CCCC4)cn3)n[nH]c2c1 [Compound I-94] ... 0.01 to 0.05
CNC(=O)c1ccccc1Sc1ccc2c(/C=C/c3ccn(CCCN4CCCC4)n3)n[nH]c2c1 [Compound I-11] ... 0.01 to 0.05

Quick one: give me fraction unbound at 2 h, 2 µM for each item below, same order please.
1. CNC(=O)c1ccccc1Sc1ccc2c(/C=C/c3ccc(OCC4CCNC4)cn3)n[nH]c2c1 (stereo not shown) [Compound I-7]
2. CNC(=O)c1ccccc1Sc1ccc2c(/C=C/c3cnn(CCN4CCCC4)c3)n[nH]c2c1 [Compound I-9]
3. O=C(NC1CC1)c1cccc(F)c1Sc1ccc2c(/C=C/c3ccc(CN4CCCC4)cn3)n[nH]c2c1 [Compound I-67]
4. CCNC(=O)c1ccccc1Sc1ccc2c(/C=C/c3ccc(CN4CCCC4)cn3)n[nH]c2c1 [Compound I-73]
5. CNC(=O)c1ccccc1Sc1ccc2c(/C=C/c3ccc(OCCN4CCCC4)cn3)n[nH]c2c1 [Compound I-6]
6. CNC(=O)c1ccccc1Sc1ccc2c(/C=C/c3ccnn3CCN3CCCC3)n[nH]c2c1 [Compound I-25]
7. O=C(O)c1ccccc1Sc1ccn2c(/C=C/c3ccccn3)ncc2c1 [Compound I-28]
8. CNC(=O)c1ccccc1Sc1ccc2c(/C=C/c3ccc(OCCN4CCCC4)nc3)n[nH]c2c1 [Compound I-19]

[reply]
1: > 0.05; 2: 0.01 to 0.05; 3: > 0.05; 4: 0.01 to 0.05; 5: 0.01 to 0.05; 6: > 0.05; 7: > 0.05; 8: 0.01 to 0.05

Data origin: patent EP4781984A1
